FYI, the data here is from patent US20240132480A1.

molecular target: Mtb Lpd (Mycobacterium tuberculosis (strain ATCC 25618 / H37Rv)); assay type: biochemical; settings: 30 min preincubation; read-out: LPD IC50 (μM) w/ 30 min preincubation
endpoint-name: IC50 (µM)
Could you give me the number in µM? Just the number is fine.

These recorded examples may help you get a feel for the data.
1. C/C=C/CNC(=O)CN(C)S(=O)(=O)c1cc(C)cc2cc(C#N)[nH]c12 0.018
2. CC(=O)Nc1cccc(NC(=O)CN(C)S(=O)(=O)c2cc(C)cc3cc(C#N)[nH]c23)c1 0.028
3. Cc1cc(S(=O)(=O)N(C)CC(=O)Nc2ccc3c(c2)OCCN3C2COC2)c2[nH]c(C#N)cc2c1 0.018

Could you now consider this next compound?
Task item: Supply recorded IC50 for Cc1cc(S(=O)(=O)N2CC[C@H]2C(=O)Nc2ccc3c(c2)N(C2COC2)CCO3)c2[nH]c(C#N)cc2c1 here.
Reply: 0.033
